systemUnderTest: T1, human PILRA, c-term His-Avi tag (human, UniProt Q9UKJ1 20-197, limits assumed)
T1 construct: not shown: C-terminal His-Avi tag
T1 sequence (Q9UKJ1 20-197 limits assumed): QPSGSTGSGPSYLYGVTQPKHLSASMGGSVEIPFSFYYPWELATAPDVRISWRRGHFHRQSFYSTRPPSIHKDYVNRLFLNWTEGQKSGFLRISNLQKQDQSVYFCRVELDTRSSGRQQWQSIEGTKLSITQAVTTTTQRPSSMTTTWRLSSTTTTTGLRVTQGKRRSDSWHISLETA
experimentSummary: SPR (Biacore), antibody captured, PILRA as analyte
observable: t½ (min)
State just the number; it will be interpreted in min.

Study these solved cases before continuing.
Which t½ value belongs to hPA-004 (antibody, V domains shown) VH: QVTLKESGPGMLQPSQTLSLACSFSGFSLNSFGVAVGWIRQPSGKGLEWLAHIWWDDDKSYNPALKSRLTISKDTSKNQVFLKLANVDTADTATYYCTRIADYGNHFDYWGQGTALTVSS VL: DIQMNQSPSSLSASLGDTITITCHASQNSHVWLSWYQQKPGNIPKLLIYKASNLHTGVPSRFSGSGSGTGFTLTISGLQPEDIATYYCQQGQTYPFTFGSGTKLEIK ?
10.1

Which t½ value belongs to hPA-002 (antibody, V domains shown) VH: QVTLQESGPGILQPSQTLSLTCSFSGFSLSTFGMGVGWIRQPSGKGLEWLAHIWWDDDKYYNPALKSRLTISKDTSKNQVFLKIASVDTADIATYYCARVEDYGNPFDYWGQGTTL VL: DIQMNQSPSSLSASLGDTITITCHASQNIHVWLNWYQQKPGNIPKLLIYKASNLHTGVPSRFSGSGSGTGFTVTISSLQPEDIATYYCQQGQSYPLTFGAGTKLELK ?
2.2

Continue with the next binder.
Which t½ value belongs to E12 (antibody, V domains shown, B-cell cloning campaign (mice)) VH: QVQLQQSGAELAKPGASVKLSCKASGYTFTSYWIHWVKQRPGQGLEWIGYINPSSGDTEYNQKFKDKATLTADKSSNTAYMQLSSLTYEDSAVYYCARSAPDDGYYDYAMDYWGQGTSVTVSS VL: DIVMTQSRKFMSTSVGDRVSVTCKASQNVGSNVAWYQQKPGQSPKGLTYSASYRYSGVPDRFTGSGSGTDFTLTISNVQSEDLAEYFCQQYNSYPYTFGGGTKLEIK ?
9.6
